Assay: Selectivity ratio of IC50 for human L02 cells to IC50 for human SMMC7721 cells
Format: cell-based, SMMC-7721
Settings: L02 cells versus SMMC7721 cells, read-out: Ratio IC50
experimental_readout: selectivity ratio
Just the number.

Lookup: Need selectivity ratio of `C[C@]12CC[C@H](O)CC1=CC[C@@H]1[C@@H]2CC[C@]2(C)c3nc4ncnn4c(-c4cccc(-c5c6c(nc7ncnn57)[C@@]5(C)CC[C@H]7[C@@H](CC=C8C[C@@H](O)CC[C@@]87C)[C@@H]5C6)c4)c3C[C@@H]12` , thanks.
Found: 49

----------
Experiment: Cytotoxicity against human L02 cells assessed as cell viability at 20 uM after 72 hrs by MTT assay relative to control
Format: cell-based
Conditions: read-out: Activity
experimental_readout: viability at 72 h, 20 µM (%)
Your answer is read as %, so omit the unit and give the number.

Lookup: Record request: viability at 72 h, 20 µM value, item `C[C@]12CC[C@H](O)CC1=CC[C@@H]1[C@@H]2CC[C@]2(C)c3nc4ncnn4c(-c4cccc(-c5c6c(nc7ncnn57)[C@@]5(C)CC[C@H]7[C@@H](CC=C8C[C@@H](O)CC[C@@]87C)[C@@H]5C6)c4)c3C[C@@H]12`
Found: 70

Hello, the source for this data is ChEMBL document CHEMBL2434882, in case you need it.
